EXPERIMENTAL SYSTEM: T1, human IL-13 R130Q variant (R110Q of the mature chain) (human, UniProt P35225 35-146, Biotinylated on amines (NHS-LC-biotin, 4:1) in ELISA, panning and competition assays. The letters are unchanged.)
T1 construct: R130Q counts from Met 1 of the signal peptide, R110Q on the mature chain; Bought from Peprotech; also called IL-13 R110Q; b-R130Q
T1 sequence (P35225 35-146 limits assumed, stated change not applied): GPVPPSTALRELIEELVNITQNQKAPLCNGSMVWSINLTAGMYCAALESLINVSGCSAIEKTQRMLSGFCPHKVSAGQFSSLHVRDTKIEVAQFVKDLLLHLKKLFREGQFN
PROTOCOL SUMMARY: Ra2 binding inhibition ELISA, mAb in crude HEK293 supernatant, IL-13 binding to IL-13Ra2
Let's look at some binders and their measured % Ra2 Binding Inhibition.
Lab note: write values as number then unit, every time.

Record request: % Ra2 Binding Inhibition value, item mAb with Lc 1C02 (Lc6 variant) and Hc2 (antibody, V domains shown, human IgG1) VH: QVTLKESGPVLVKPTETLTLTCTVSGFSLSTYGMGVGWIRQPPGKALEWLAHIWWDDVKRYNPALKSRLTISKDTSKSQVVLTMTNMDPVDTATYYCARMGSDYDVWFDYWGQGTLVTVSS VL: EIVLTQSPATLSLSPGERATLSCRASKSISKYLAWYQQKPGQAPRLLIYSGSTLQSGIPARFSGSGSGTDFTLTISSLEPEDFAVYYCQQHVWGPYTFGQGTKLEIK 68.4%

# repeat for mAb with Lc 3G05 (Lc6 variant) and Hc2 (antibody, V domains shown, human IgG1) VH: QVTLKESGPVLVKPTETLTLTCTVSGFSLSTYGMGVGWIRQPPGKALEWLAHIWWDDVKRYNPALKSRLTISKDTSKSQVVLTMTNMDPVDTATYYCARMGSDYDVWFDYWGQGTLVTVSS VL: EIVLTQSPATLSLSPGERATLSCRASKSISKYLAWYQQKPGQAPRLLIYSGSTLQSGIPARFSGSGSGTDFTLTISSLEPEDFAVYYCQQHDWGPYTFGQGTKLEIK 89.5%

# repeat for mAb with Lc 5G02 (Lc6 variant) and Hc2 (antibody, V domains shown, human IgG1) VH: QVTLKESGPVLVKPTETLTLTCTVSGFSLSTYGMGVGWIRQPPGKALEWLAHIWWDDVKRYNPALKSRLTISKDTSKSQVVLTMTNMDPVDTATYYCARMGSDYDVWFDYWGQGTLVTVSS VL: EIVLTQSPATLSLSPGERATLSCRASKSISKYLAWYQQKPGQAPRLLIYSGSTLQGGIPARFSGSGSGTDFTLTISSLEPEDFAVYYCQQHLDSPYTFGQGTKLEIK 66.2%
